Each recorded value in this set is attributed to patent US20140275490A1.

Catalogue of EC50 values
Molecular target: T1, monkey IL-23R-mouse Fc fusion protein (monkey; mouse)
T1 construct: extracellular domain; also called monkey IL-23R-Fc fusion protein
Test: antigen ELISA, monkey IL-23R-Fc immobilized, HRP anti-human IgG, chemiluminescence
Response body: numeric value in µg/mL, unit text excluded.

Which EC50 value belongs to fully human antibody 32-28 (antibody, human IgG1, kappa, V domains shown, Human Ig gamma1 / human kappa constant regions; also called 32-28 (fully human); fully human 32-28 antibody) VH: QVHLVQSGTEVRKPGASVKVSCKVSGYTLNELAIHWVRQAPGKGLEWMGGFDPEHGEIIYAQRFQGRVTLPEDTSTDTAYLDLFNLRSEDTAVYFCATEAAPFDYWGQGTLVIVSS VL: DIQMTQSPSTLSASVGDRVTITCRASQSLSSWLAWYQQKPGKAPKLLIYKASSLESGVPSRFSGSGSGTDFTLTISSLQPDDFATYYCQQYDIYPRTFGQGTKVEIKR ?
0.0171

Turning to the following binder.
Consider the binder fully human antibody 34-58 (antibody, human IgG1, kappa, V domains shown, Human Ig gamma1 / human kappa constant regions; also called 34-58 (fully human); fully human 34-58 antibody) VH: QVHLVQSGTEVRKPGASVKVSCKVSGYTLNELAIHWVRQAPGKGLEWMGGFDPEHGEIIYAQRFQGRITLPEDTSTDTAYMDLVNLRSEDTAVYFCTTEAAPFDYWGQGSLVIVSS VL: DIQMTQSPSTLSASVGDRVTITCRASQSLSNWLAWYQQKPGKAPKLLIYKASSLESGVPSRFSGSGSGTDFTLTISGLQPDDFATYYCQQYDIYPRTFGQGTKVEIKR and give its measured EC50.
0.0148
